Quick reference for viability, T/C among some compounds
test system: 967376-340-R-J2-PDC multicell spheroid viability; test: Anticancer human tumor 967376-340-R-J2-PDC patient-derived colon adenocarcinoma cell line growth inhibition [PI3K]; details: second compound 1 µM; first compound 0.1 µM; stronger effect = lower value

compound	reading-unit	viability, T/C
CCN1CCN(Cc2ccc(Nc3ncc(F)c(-c4cc(F)c5nc(C)n(C(C)C)c5c4)n3)nc2)CC1 + CC(Nc1ncnc2nc[nH]c12)c1cc2cccc(Cl)c2c(=O)n1-c1ccccc1	%	80
CC(C)n1nc(-c2ccc3oc(N)nc3c2)c2c(N)ncnc21 + Cc1nc(NC(=O)N2CCCC2C(N)=O)sc1-c1ccnc(C(C)(C)C(F)(F)F)c1	%	36.2
CCCS(=O)(=O)Nc1ccc(F)c(C(=O)c2c[nH]c3ncc(-c4ccc(Cl)cc4)cc23)c1F + CC(Nc1ccc2c(c1)OCCn1cc(N3C(=O)OCC3C(F)F)nc1-2)C(N)=O	%	55.5
CC1(C)CCC(CN2CCN(c3ccc(C(=O)NS(=O)(=O)c4ccc(NCC5CCOCC5)c([N+](=O)[O-])c4)c(Oc4cnc5[nH]ccc5c4)c3)CC2)=C(c2ccc(Cl)cc2)C1 + Cc1nc(NC(=O)N2CCCC2C(N)=O)sc1-c1ccnc(C(C)(C)C(F)(F)F)c1	%	73.3
CCN1CCN(Cc2ccc(Nc3ncc(F)c(-c4cc(F)c5nc(C)n(C(C)C)c5c4)n3)nc2)CC1 + COc1c(OCCCN2CCOCC2)ccc2c3n(c(=NC(=O)c4cnc(N)nc4)nc12)CCN3	%	22.8

###

tested on: 967376-340-R-J2-PDC multicell spheroid viability; test: Anticancer human tumor 967376-340-R-J2-PDC cell line growth inhibition [PI3K]; conditions: second compound 0.1 µM; first compound 1 µM; stronger effect = lower value;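 also: spheroids exposed to agents for 7 days before read-out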;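 as to viability, T/C: luminescence used as surrogate of cell viability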
Quick reference for viability, T/C among some compounds
outcome-measure: viability, T/C (%)

compound	outcome-measure	endpoint-value
CCN1CCN(Cc2ccc(Nc3ncc(F)c(-c4cc(F)c5nc(C)n(C(C)C)c5c4)n3)nc2)CC1 + CC(Nc1ccc2c(c1)OCCn1cc(N3C(=O)OCC3C(F)F)nc1-2)C(N)=O	viability, T/C	51.3
C[C@@H](NC(=O)c1ncnc(N)c1Cl)c1ncc(C(=O)Nc2cc(C(F)(F)F)c(Cl)cn2)s1 + Cc1nc(NC(=O)N2CCCC2C(N)=O)sc1-c1ccnc(C(C)(C)C(F)(F)F)c1	viability, T/C	96.7
CC1(C)CCC(Nc2ncc(C(F)(F)F)c(-c3c[nH]c4c(P(C)(C)=O)c(C#N)ccc34)n2)CN1 (stereo not given) + CC(Nc1ncnc2nc[nH]c12)c1cc2cccc(Cl)c2c(=O)n1-c1ccccc1	viability, T/C	75.2
C=CC(=O)N1CCN(c2nc(=O)n(-c3c(C)ccnc3C(C)C)c3nc(-c4c(O)cccc4F)c(F)cc23)C(C)C1 (stereo not given) + Cc1nc(NC(=O)N2CCCC2C(N)=O)sc1-c1ccnc(C(C)(C)C(F)(F)F)c1	viability, T/C	84.6
CC(Cn1ccc(-c2ccc(C#N)c(Cl)c2)n1)NC(=O)c1cc(C(C)O)[nH]n1 (stereo not given) + CC(Nc1ccc2c(c1)OCCn1cc(N3C(=O)OCC3C(F)F)nc1-2)C(N)=O	viability, T/C	83.9

###

system: 967376-340-R-J2-PDC multicell spheroid viability; assay: Anticancer human tumor 967376-340-R-J2-PDC cell line growth inhibition [PI3K]; settings: curve of first compound; second compound 0.0316 µM;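 also: spheroids exposed to agents for 7 days before read-out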
outcome-measure: IC50

molecule	outcome-measure	endpoint-value
C[C@@H](NC(=O)c1ncnc(N)c1Cl)c1ncc(C(=O)Nc2cc(C(F)(F)F)c(Cl)cn2)s1 + CC(Nc1ncnc2nc[nH]c12)c1cc2cccc(Cl)c2c(=O)n1-c1ccccc1	IC50	> 10 µM
CCN1CCN(Cc2ccc(Nc3ncc(F)c(-c4cc(F)c5nc(C)n(C(C)C)c5c4)n3)nc2)CC1 + Cc1nc(NC(=O)N2CCCC2C(N)=O)sc1-c1ccnc(C(C)(C)C(F)(F)F)c1	IC50	> 1 µM
CCCS(=O)(=O)Nc1ccc(F)c(C(=O)c2c[nH]c3ncc(-c4ccc(Cl)cc4)cc23)c1F + COc1c(OCCCN2CCOCC2)ccc2c3n(c(=NC(=O)c4cnc(N)nc4)nc12)CCN3	IC50	> 10 µM
CNC(=O)c1ccc(N2C(=S)N(c3ccc(C#N)c(C(F)(F)F)c3)C(=O)C2(C)C)cc1F + COc1c(OCCCN2CCOCC2)ccc2c3n(c(=NC(=O)c4cnc(N)nc4)nc12)CCN3	IC50	> 10 µM
C#Cc1c(F)ccc2cc(O)cc(-c3ncc4c(N5CC6CCC(C5)N6)nc(OCC56CCCN5CC(F)C6)nc4c3F)c12 (stereo unspecified) + CC(Nc1ccc2c(c1)OCCn1cc(N3C(=O)OCC3C(F)F)nc1-2)C(N)=O	IC50	> 10 µM
CC(=O)c1c(C)c2cnc(Nc3ccc(N4CCNCC4)cn3)nc2n(C2CCCC2)c1=O + CC(Nc1ncnc2nc[nH]c12)c1cc2cccc(Cl)c2c(=O)n1-c1ccccc1	IC50	> 0.1 µM
CC(C)n1nc(-c2ccc3oc(N)nc3c2)c2c(N)ncnc21 + Cc1nc(NC(=O)N2CCCC2C(N)=O)sc1-c1ccnc(C(C)(C)C(F)(F)F)c1	IC50	> 0.1 µM
CC1(C)CCC(CN2CCN(c3ccc(C(=O)NS(=O)(=O)c4ccc(NCC5CCOCC5)c([N+](=O)[O-])c4)c(Oc4cnc5[nH]ccc5c4)c3)CC2)=C(c2ccc(Cl)cc2)C1 + CC(Nc1ccc2c(c1)OCCn1cc(N3C(=O)OCC3C(F)F)nc1-2)C(N)=O	IC50	> 10 µM
C=CC(=O)N1CCN(c2nc(=O)n(-c3c(C)ccnc3C(C)C)c3nc(-c4c(O)cccc4F)c(F)cc23)C(C)C1 (stereo unspecified) + CC(Nc1ncnc2nc[nH]c12)c1cc2cccc(Cl)c2c(=O)n1-c1ccccc1	IC50	> 10 µM
CNC(=O)c1ccc(N2C(=S)N(c3ccc(C#N)c(C(F)(F)F)c3)C(=O)C2(C)C)cc1F + CC(Nc1ncnc2nc[nH]c12)c1cc2cccc(Cl)c2c(=O)n1-c1ccccc1	IC50	> 10 µM
Cn1cnc2c(F)c(Nc3ccc(Br)cc3Cl)c(C(=O)NOCCO)cc21 + CC(Nc1ccc2c(c1)OCCn1cc(N3C(=O)OCC3C(F)F)nc1-2)C(N)=O	IC50	0.461 µM
CCN1CCN(Cc2ccc(Nc3ncc(F)c(-c4cc(F)c5nc(C)n(C(C)C)c5c4)n3)nc2)CC1 + CC(Nc1ccc2c(c1)OCCn1cc(N3C(=O)OCC3C(F)F)nc1-2)C(N)=O	IC50	> 1 µM
Cn1ncnc1[C@H]1c2n[nH]c(=O)c3cc(F)cc(c23)N[C@@H]1c1ccc(F)cc1 + Cc1nc(NC(=O)N2CCCC2C(N)=O)sc1-c1ccnc(C(C)(C)C(F)(F)F)c1	IC50	> 0.1 µM
Cn1nccc1Nc1nccc(-c2ccn(C(CO)c3ccc(Cl)c(F)c3)c(=O)c2)n1 (stereo unspecified) + CC(Nc1ccc2c(c1)OCCn1cc(N3C(=O)OCC3C(F)F)nc1-2)C(N)=O	IC50	> 10 µM
CNC(=O)c1ccc(N2C(=S)N(c3ccc(C#N)c(C(F)(F)F)c3)C(=O)C2(C)C)cc1F + CC(Nc1ccc2c(c1)OCCn1cc(N3C(=O)OCC3C(F)F)nc1-2)C(N)=O	IC50	> 10 µM
CCCS(=O)(=O)Nc1ccc(F)c(C(=O)c2c[nH]c3ncc(-c4ccc(Cl)cc4)cc23)c1F + CC(Nc1ccc2c(c1)OCCn1cc(N3C(=O)OCC3C(F)F)nc1-2)C(N)=O	IC50	> 10 µM
CCCS(=O)(=O)Nc1ccc(F)c(C(=O)c2c[nH]c3ncc(-c4ccc(Cl)cc4)cc23)c1F + Cc1nc(NC(=O)N2CCCC2C(N)=O)sc1-c1ccnc(C(C)(C)C(F)(F)F)c1	IC50	6.97 µM
Cn1ncc(Cl)c1-c1cc(C(=O)NC(CN)Cc2cccc(F)c2)sc1Cl (stereo unspecified) + CC(Nc1ccc2c(c1)OCCn1cc(N3C(=O)OCC3C(F)F)nc1-2)C(N)=O	IC50	> 10 µM
CC1(C)CCC(CN2CCN(c3ccc(C(=O)NS(=O)(=O)c4ccc(NCC5CCOCC5)c([N+](=O)[O-])c4)c(Oc4cnc5[nH]ccc5c4)c3)CC2)=C(c2ccc(Cl)cc2)C1 + CC(Nc1ncnc2nc[nH]c12)c1cc2cccc(Cl)c2c(=O)n1-c1ccccc1	IC50	> 10 µM
C#Cc1c(F)ccc2cc(O)cc(-c3ncc4c(N5CC6CCC(C5)N6)nc(OCC56CCCN5CC(F)C6)nc4c3F)c12 (stereo unspecified) + Cc1nc(NC(=O)N2CCCC2C(N)=O)sc1-c1ccnc(C(C)(C)C(F)(F)F)c1	IC50	> 10 µM
CC(Cn1ccc(-c2ccc(C#N)c(Cl)c2)n1)NC(=O)c1cc(C(C)O)[nH]n1 (stereo unspecified) + COc1c(OCCCN2CCOCC2)ccc2c3n(c(=NC(=O)c4cnc(N)nc4)nc12)CCN3	IC50	> 10 µM
